Please respond with reported EC50 for every item in the list.
System: T47D cells expressing mutant PI3Ka (H1047R)
Assay: In vitro cell proliferation, T47D cells (CellTiter-Glo)
Assay type: cell-based
Conditions: inhibition of proliferation, 72 hours, read-out: Avg T-47D EC50

Lab note: each compound below needs its EC50 filled in.
1. C[C@@H](Nc1cccc(F)c1C(=O)O)c1cc(F)cc2c(=O)n(C)c(-c3cnc(OC4CC4)c(F)c3)cc12
2. Cc1cc([C@@H](C)Nc2cccc(F)c2C(=O)O)c2cc(N3CCN(c4cncnc4C)CC3)n(C)c(=O)c2c1
3. Cc1cc(C(C)Nc2ccccc2C(=O)O)c2cc(N3C[C@@H]4CCCC[C@H]4C3)n(C)c(=O)c2c1 (single isomer, unassigned) [Example 100]
4. CC(Nc1ccccc1C(=O)O)c1cc(F)cc2c(=O)n(C)c(N3CCN(CC(F)(F)F)CC3)c(F)c12 (single isomer, unassigned) [Example 573]
5. CC(Nc1cccc(F)c1C(=O)O)c1cc(F)cc2c(=O)n(C)c(-c3cnc(OC4CC(F)C4)c(F)c3)cc12 (centres unmarked)
6. Cc1cc(C(C)Nc2ccccc2C(=O)O)c2cc(C#Cc3ccccc3)n(C)c(=O)c2c1 (single isomer, unassigned) [Example 36]

(A)
["1 to 500 nM", "1 to 500 nM", "1 to 500 nM", "2000 to 15000 nM", "1 to 500 nM", "1 to 500 nM"]

---

Please respond with reported IC50 for every item in the list.
System: phosphorylation of AKT (pAKT) in T47D cells expressing mutant PI3Ka (H1047R)
Experiment: In vitro cell pAKT (Ser473) HTRF, T47D cells
Format: cell-based
Settings: cellular pAKT, T47D cells, mutant PI3Ka (H1047R), 6 hours; read-out: Avg T-47D IC50

Lab note: each molecule below needs its IC50 filled in.
1. Cc1cc(C(C)Nc2ccccc2C(=O)O)c2cc(N3CC(c4ccccc4)C3)n(C)c(=O)c2c1 (single isomer, unassigned) [Example 76]
2. COC[C@@H]1CC1c1cc2c([C@@H](C)Nc3ccccc3C(=O)O)cc(C)cc2c(=O)n1C (single isomer, unassigned)
3. Cc1cc([C@@H](C)Nc2ccccc2C(=O)O)c2cc(N3CCN(c4cccc(Cl)c4)CC3)n(C)c(=O)c2c1

(A)
["> 15 µM", "0.001 to 0.5 µM", "0.001 to 0.5 µM"]

---

Test system: SKBR3 cells express WT PI3Ka
Experiment: In vitro cell proliferation, SKBR3 cells (CellTiter-Glo)
Type: cell-based
Conditions: Homo sapiens, SK-BR-3, 72 h, inhibition of proliferation
pEC50: −log10 of the molar value.
measuredQuantity: pEC50

Consider the following illustrative entries.
INSERT INTO measurements (compound, measuredquantity, value) VALUES
  ('CCc1ncc(-c2cc3c([C@@H](C)Nc4ccccc4C(=O)O)cc(F)cc3c(=O)n2C)s1', 'pEC50', '< 4.82'),
  ('C[C@@H](Nc1ccccc1C(=O)O)c1cc(F)cc2c(=O)n(C)c(-c3cnc(C(F)(F)F)s3)cc12', 'pEC50', '< 4.82'),
  ('Cc1cc([C@@H](C)Nc2ccc(Cl)nc2C(=O)O)c2cc(-c3ccc(C)nc3)n(C)c(=O)c2c1', 'pEC50', '4.82 to 5.70');

Now examine the next entry.
(Q) Endpoint output: pEC50 of Cc1cc(C(C)Nc2ccccc2C(=O)O)c2cc(N3CCC4(CCCC4)CC3)n(C)c(=O)c2c1 (stereo not shown) . Value?
(A) < 4.82
